Reported values of pIC50 for individual entries
- target_under_test: HCV NS3/4A protease complex (BMS strain)
- Construct: other: HCV NS3/4A enzyme assay; said of H77 and J4L6S; fused on or other part: Three-lysine solubilising tail at the NS4A C-terminus and a His tag from pET21b (Ni-NTA purification), for the H77 and J4L6S constructs
- protocol: FRET peptide assay to monitor HCV NS3/4A proteolytic activity, BMS strain
- study_conditions: read-out: IC50 Range; HCV NS3/4A enzyme assay; Table 1
pIC50: −log10 of the molar value.

compound: C=C[C@@H]1C[C@]1(NC(=O)[C@@H]1C[C@@H](Oc2nccc3cc(OC)ccc23)CN1C(=O)[C@@H](OC(=O)NC(C)(C)C)C(C)(C)C)C(=O)NS(=O)(=O)c1cn(C)cn1 [Example 60Compound 60]
pIC50: < 6.00

Read off the recorded pIC50 for C=C[C@@H]1C[C@]1(NC(=O)[C@@H]1C[C@@H](Oc2cc(-c3cccs3)cc(-c3ccccc3)n2)CN1C(=O)[C@@H](OC(=O)NC(C)(C)C)C(C)(C)C)C(=O)NS(=O)(=O)C1CC1 [Example 55Compound 55] > 7.00

Read off the recorded pIC50 for C=C[C@@H]1C[C@]1(NC(=O)[C@@H]1C[C@@H](Oc2nccc3ccccc23)CN1C(=O)[C@@H](OC(=O)Nc1ccc(OC)cc1)C(C)(C)C)C(=O)NS(=O)(=O)C1CC1 [Example 31] 6.00 to 7.00

Read off the recorded pIC50 for C=C[C@@H]1C[C@]1(NC(=O)[C@@H]1C[C@@H](Oc2cc(-c3ccccc3)nc3cc(OC)ccc23)CN1C(=O)[C@@H](OC(=O)Nc1ccccc1)C(C)(C)C)C(=O)NS(=O)(=O)C1CC1 [Example 5,Compound 4] > 7.00

Read off the recorded pIC50 for C=C[C@@H]1C[C@]1(NC(=O)[C@@H]1C[C@@H](Oc2nccc3cc(OC)ccc23)CN1C(=O)[C@@H](O)C(C)C)C(=O)NS(=O)(=O)C1CC1 (stereo in doubt) [Example 52Compound 52] 6.00 to 7.00

Read off the recorded pIC50 for C=C[C@@H]1CC1(NC(=O)[C@@H]1C[C@@H](Oc2cc(-c3ccccc3)nc3cc(OC)ccc23)CN1C(=O)[C@@H](OC(=O)NC(C)(C)C)C(C)(C)C)C(=O)NS(=O)(=O)C1(CC2CC2)CC1 (stereo partly shown) [Example 22] > 7.00

Read off the recorded pIC50 for C=C[C@@H]1C[C@]1(NC(=O)[C@@H]1C[C@@H](Oc2nccc3ccccc23)CN1C(=O)[C@@H](OC(=O)Nc1ccc(F)cc1)C(C)(C)C)C(=O)NS(=O)(=O)C1CC1 [Example 30] 6.00 to 7.00
